- experimental protocol: Selectivity index, ratio of CC50 for human MT-4 cells to EC50 for HIV-1 infected in MT-4 cells
- Assay type: toxicity, cell-based
- test context: read-out: Ratio CC50/EC50
endpoint name: selectivity ratio

Here's what some known entries look like.
Input: Which selectivity ratio is reported for this compound? CCC(C)CN(c1ccnc(Nc2ccc(C#N)cc2)n1)c1c(F)cc(-c2ccc(C#N)cc2)cc1F (centres undefined)
Output: > 1060

Input: Entry under review: N#Cc1ccc(Nc2nccc(/C(=N/O)c3ccc(-c4ccc(F)cc4)cc3F)n2)cc1 . Reported selectivity ratio?
Output: > 24100

Input: Would you mind telling me what selectivity ratio value was observed for N#Cc1ccc(Nc2nccc(N(CCCCl)c3c(F)cc(-c4ccc(C#N)cc4)cc3F)n2)cc1 ?
Output: > 6300

Input: Fill blank: measured selectivity ratio of the compound N#Cc1ccc(Nc2nccc(N(CC3CCCC3)c3c(F)cc(-c4ccc(C#N)cc4)cc3F)n2)cc1 is ____.
Output: > 534

Input: What value of selectivity ratio has been reported for the following compound? N#Cc1ccc(Nc2nccc(N(CCF)c3c(F)cc(-c4ccc(C#N)cc4)cc3F)n2)cc1
Output: 32400

Input: Which selectivity ratio value belongs to CC(=O)N(c1ccnc(Nc2ccc(C#N)cc2)n1)c1c(F)cc(-c2ccc(C#N)cc2)cc1F ?
Output: > 34700

Continuing:
Input: # selectivity ratio lookup, item CCS(=O)(=O)N(c1ccnc(Nc2ccc(C#N)cc2)n1)c1c(F)cc(-c2ccc(C#N)cc2)cc1F
Output: > 5140

Input: selectivity ratio for CC(C)N(c1ccnc(Nc2ccc(C#N)cc2)n1)c1c(F)cc(-c2ccc(C#N)cc2)cc1F ?
Output: 6440

Input: Which value of selectivity ratio has been reported for CCCCN(c1ccnc(Nc2ccc(C#N)cc2)n1)c1c(F)cc(-c2ccc(C#N)cc2)cc1F in the records?
Output: 5240
